FYI, the data here is from paper PMC9482650.

molecular target: MAST1, Q9Y2H9; assay: holdup assay; design: key: below the threshold = too weak to quantify, mostly under pKd 3.1 to 4; conditions: plain residues with an end cap or a label only (N-terminal biotin on a linker: ado-ado)
Sequence (Q9Y2H9 962-1065): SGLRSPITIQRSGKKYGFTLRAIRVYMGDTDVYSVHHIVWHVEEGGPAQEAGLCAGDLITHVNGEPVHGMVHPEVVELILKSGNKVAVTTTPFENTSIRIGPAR
Quantity name: pKd

STKRKLASAV [NCF1, P14598]
below the threshold
QRPYRRGSEI [KCNJ18, B7U540]
below the threshold
APIAGFSSFV [SDK2, Q58EX2]
below the threshold
